- System: Vero E6 infected with SARS-CoV-2
- assay name: inhibition of SARS-CoV-2 cytopathic effect; higher = more antiviral protection, active = above 15
- assay setup: 10000 nM; 48 h
A correct response names exactly one class from active, inactive

Look over these answered cases.
O=C(/C=C/c1cccc(S(=O)(=O)Nc2ccccc2)c1)NO [belinostat]
inactive
Cc1nn(C)c2c1C(c1cccc(Cl)c1)=NCCN2 [zometapine]
inactive
CC1(C)CC[C@]2(C(=O)O)CC[C@]3(C)[C@H](C(=O)C=C4[C@@]5(C)C=C(C#N)C(=O)C(C)(C)[C@@H]5CC[C@]43C)[C@@H]2C1 [bardoxolone]
active
CC(C)N(CCCNC(=O)Nc1ccc(C(C)(C)C)cc1)C[C@H]1O[C@@H](n2cc(Br)c3c(N)ncnc32)[C@H](O)[C@@H]1O
inactive

Query: Short answer needed: outcome of this test for CO/N=C(\C(=O)N[C@@H]1C(=O)N2C(C(=O)OCOC(=O)C(C)(C)C)=C(/C=C\c3scnc3C)CS[C@H]12)c1csc(N)n1 [cefditoren-pivoxil] ?
Result: inactive

----------
- Tested on: Vero E6 infected with SARS-CoV-2
- assay name: inhibition of SARS-CoV-2 cytopathic effect; higher = more antiviral protection, active = above 15
- assay setup: 8.33 nM; 48 h
measured quantity: inhibition of SARS-CoV-2 cytopathic effect (%)
Write the number in % without appending the unit.

NC(=O)c1cnc2[nH]ccc2c1N[C@@H]1[C@@H]2CC3C[C@H]1C[C@@](O)(C3)C2
-1.31
Cc1nc2ccc(-n3ncc(C(=O)c4cc5ccccc5[nH]4)c3N)cc2[nH]1
-1.11
C[C@H](N)Cc1cccc(O)c1
1.71

Given item `O=C1[C@H]2CCCC[C@H]2C(=O)N1CCCCN1CCN(c2nsc3ccccc23)CC1` , the value recorded as its inhibition of SARS-CoV-2 cytopathic effect is 3.93

----------
The compounds listed here are annotated with their inhibition of SARS-CoV-2 cytopathic effect.
- Tested on: Vero E6 infected with SARS-CoV-2
- assay name: inhibition of SARS-CoV-2 cytopathic effect; higher = more antiviral protection, active = above 15
- assay setup: 1 nM; 48 h
Write the number in % without appending the unit.

Worked cases, answers included:
CCOC(=O)Nc1nc2ccccc2[nH]1
-9.74
C[C@]12CC[C@H]3[C@@H](CC[C@]4(O)C[C@@H](O)CC[C@]34C=O)[C@@]1(O)CC[C@@H]2C1=CC(=O)OC1
0.01
Nc1nc2c(c(N3CCNCC3)n1)CCC1=C2[C@@H]2CCCC[C@@H]2O1
1.61
CN1[C@@H]2C[C@@H](O)C[C@H]1[C@@H]1O[C@@H]12
-0.81
Cn1c(=O)c2c(ncn2CC(O)CO)n(C)c1=O (stereo not drawn)
1.96

Given item `C[C@H](CCC(=O)NCCS(=O)(=O)O)[C@H]1CC[C@H]2[C@@H]3[C@@H](O)C[C@@H]4C[C@H](O)CC[C@]4(C)[C@H]3CC[C@]12C` , the value recorded as its inhibition of SARS-CoV-2 cytopathic effect is -1.76

Given item O=c1nc2ccccc2c2n1CC(CN1CCN(c3ccccc3)CC1)N2 (stereo not drawn) , the value recorded as its inhibition of SARS-CoV-2 cytopathic effect is 3.05

Given item `O=C(O)C(=O)O.[NH-][C@@H]1CCCC[C@H]1[NH-].[Pt+2]` , the value recorded as its inhibition of SARS-CoV-2 cytopathic effect is 1.5
